Cited source: the supplement of paper PMC10724198

# Tested on: Saccharomyces cerevisiae
# methodNotes: protein stability index of tFT-peptide fusion (C-terminal peptide) (PSI (0-1 scale)); higher = more stable (slower turnover)
# measurementConditions: genetic background: wild type; temperature: 30 C
observedProperty: protein stability index

> print(dat)
   sequencerecord  numericvalue
1    WGRIVRDFHCGG         0.614
2    PPRPPPLPPSPP         0.685
3    WFNAGAGDLGSV         0.709
4    TDWLMQRILRPF         0.718
5    ACLYDSMSVSSK         0.639

###

# Test system: Saccharomyces cerevisiae
# methodNotes: protein stability index of tFT-peptide fusion (C-terminal peptide) (PSI (0-1 scale)); higher = more stable (slower turnover)
# measurementConditions: genetic background: wild type; temperature: 30 C
# protein stability index values compiled below
observedProperty: protein stability index

> print(dat)
    sequencerecord         observedproperty  numericvalue
 1    SIFVNICRRMKC  protein stability index         0.616
 2    PHAMNPNTSRVL  protein stability index         0.682
 3    SPLSLPTRSCLL  protein stability index         0.707
 4    VLSAPPGLLSYT  protein stability index         0.623
 5    VVFWWGHLLVSA  protein stability index         0.142
 6    PLPPPRPLPTPL  protein stability index          0.69
 7    VWGRGWVVGWFL  protein stability index         0.612
 8    SGSFAIYCSVSF  protein stability index         0.611
 9    FFCCVLFSIVVY  protein stability index         0.171
10    YPLPPPRPPCLP  protein stability index         0.664
11    VGGGGAELCVVE  protein stability index         0.667
12    WGHFVGVWGRAG  protein stability index         0.664
13    SGVILWSAWRDG  protein stability index         0.703
14    GCEGGWLGEGIG  protein stability index         0.593
15    PPPPPPAFPPST  protein stability index         0.716
16    VIVKSRTTLYIS  protein stability index         0.155
17    PIPPDPPAYQGQ  protein stability index         0.643
18    SRRSIGAYLFVS  protein stability index         0.339
19    SGRVMRAFSCGV  protein stability index         0.623
20    GVGSVQRCGGGG  protein stability index         0.677
21    LSRVLQAPRRGG  protein stability index         0.681
22    QKKKQTDHTNGV  protein stability index         0.684
23    RLPSSPPSATWL  protein stability index         0.678
24    GGYGGGWRGGGR  protein stability index         0.626
25    AGAIWGGDSGVG  protein stability index         0.607
26    LRISIEVTNYGP  protein stability index         0.517
27    ALPAGLRDLPRP  protein stability index         0.586
28    LRKAKRDKRIKI  protein stability index         0.759
29    WGYRLRGGGGQG  protein stability index         0.701
30    VRGRGVYRIDKV  protein stability index         0.716
31    IVEKAVAKGIKE  protein stability index         0.677
32    AWDSVNDSDPPR  protein stability index         0.717
33    FITLHGLLSRPC  protein stability index         0.626
34    VAWSACRLSLWG  protein stability index         0.889
35    PPPPPPPTPIHP  protein stability index          0.72

###

# protein stability index values compiled below
# Test system: Saccharomyces cerevisiae
# methodNotes: protein stability index of tFT-peptide fusion (C-terminal peptide) (PSI (0-1 scale)); higher = more stable (slower turnover)
# measurementConditions: genetic background: wild type; temperature: 30 C
observedProperty: protein stability index

> print(dat)
   sequencerecord         observedproperty  numericvalue
1    VHGRAPTSRSGT  protein stability index          0.72
2    GTIFLIRVLLFG  protein stability index         0.284
3    PDCSFLNSTFTS  protein stability index         0.739
4    EKKKNKTQLKTK  protein stability index         0.667
5    ITKTGAAEHASL  protein stability index          0.63
6    EGGGWGRYDGFG  protein stability index         0.694
7    AMAMSSGQCFSS  protein stability index         0.677
8    GDGGGCWSGVGW  protein stability index         0.643
9    PLPAISPPPTLP  protein stability index         0.758

###

# Tested on: Saccharomyces cerevisiae
# methodNotes: protein stability index of tFT-peptide fusion (C-terminal peptide) (PSI (0-1 scale)); higher = more stable (slower turnover)
# measurementConditions: genetic background: das1 deletion; temperature: 30 C
observedProperty: protein stability index

> print(dat)
                           sequencerecord         observedproperty  numericvalue
1   SKQEKPLSRPKD [GPI15 C-terminal 12 aa]  protein stability index         0.718
2  QFDSENVILSVI [TRS120 C-terminal 12 aa]  protein stability index         0.716
3   IKLEDAKGTHIK [RAD59 C-terminal 12 aa]  protein stability index         0.695

###

# Tested on: Saccharomyces cerevisiae
# methodNotes: protein stability index of tFT-peptide fusion (C-terminal peptide) (PSI (0-1 scale)); higher = more stable (slower turnover)
# measurementConditions: genetic background: wild type; temperature: 30 C
observedProperty: protein stability index

> print(dat)
   sequencerecord               studysystem  numericvalue
1    PPTPPTSHPSPR  Saccharomyces cerevisiae         0.696
2    FSASSSLSPFPL  Saccharomyces cerevisiae         0.707
3    GGWWGGLGCFMV  Saccharomyces cerevisiae         0.699
4    SFSSPPPTLVPP  Saccharomyces cerevisiae         0.693

###

# protein stability index values compiled below
# Tested on: Saccharomyces cerevisiae
# methodNotes: protein stability index of tFT-peptide fusion (C-terminal peptide) (PSI (0-1 scale)); higher = more stable (slower turnover)
# measurementConditions: genetic background: das1 deletion; temperature: 30 C
observedProperty: protein stability index

> print(dat)
                              sequencerecord  numericvalue
 1      AYRTYDISLTEN [DRN1 C-terminal 12 aa]         0.694
 2      KNKTKQNQAQSW [LTO1 C-terminal 12 aa]         0.704
 3      AQPSQSEKEKTK [LNP1 C-terminal 12 aa]         0.679
 4      KKKDASQEESLI [VMA2 C-terminal 12 aa]         0.692
 5      GIVNFWSLEKAA [CIA1 C-terminal 12 aa]         0.716
 6      RHRKSEDRSLEA [ATR2 C-terminal 12 aa]         0.706
 7    FPFELRREQTEG [PET130 C-terminal 12 aa]         0.698
 8      ISDNVPKEAIIM [PSA1 C-terminal 12 aa]         0.686
 9      ATFSHPELTNIH [SDH6 C-terminal 12 aa]         0.716
10     GNSVNPYNGRIN [SGF73 C-terminal 12 aa]         0.718
11     FVFVNEFDVYTY [GPI12 C-terminal 12 aa]         0.716
12     VPGNPGVVFQNI [CDC60 C-terminal 12 aa]         0.708
13      EVDELPEGYDRS [TAH1 C-terminal 12 aa]         0.685
14     ANGRHPQPSITL [CDC33 C-terminal 12 aa]          0.71
15   LPQRSIPCAIYP [YCR108C C-terminal 12 aa]         0.687
16      VEAVKRVLTKKF [IMG2 C-terminal 12 aa]         0.688
17     LLYLYDNDHTST [GPI19 C-terminal 12 aa]          0.72
18      YAELAERKKQEN [COX9 C-terminal 12 aa]         0.692
19      YGVPDAELKIVG [DGA1 C-terminal 12 aa]         0.719
20  RKCRVYVIQDAF [YER084W-A C-terminal 12 aa]         0.685
21      ELIEDPRKMLLW [KGD2 C-terminal 12 aa]         0.694
22      NSNELEYAPTAN [LIA1 C-terminal 12 aa]         0.686
23      LEDEDVVTILKK [RBG1 C-terminal 12 aa]         0.705
24     SKTSHNPNEQSV [PDR11 C-terminal 12 aa]         0.695
25      CPHHNPDNQQFF [BIK1 C-terminal 12 aa]         0.702
26      FDSEHFYSPVQT [PRP3 C-terminal 12 aa]         0.707
27      KLRITSQENKTE [BCK1 C-terminal 12 aa]          0.68
28      LNNTAASTGPGR [YKE2 C-terminal 12 aa]         0.684
29      VDVLKLNDPTRH [BCY1 C-terminal 12 aa]         0.716
30     IVPSQGKKVKFD [NOP13 C-terminal 12 aa]         0.679
31      NKPKGPLRKRRT [TWF1 C-terminal 12 aa]           0.7
32   AYFALREKKFLL [YIL012W C-terminal 12 aa]         0.694
33  AKTKFCCCIPFK [YOR376W-A C-terminal 12 aa]         0.717
34      NPNSLPLQPIAN [MSC2 C-terminal 12 aa]         0.704
35      SDELSRNFDSQG [VPS3 C-terminal 12 aa]         0.705
36      EALTKASNVNKL [CIT3 C-terminal 12 aa]         0.697
